Values compiled from patent US9718790B2.

- TARGET OR SYSTEM: human P2X3 receptor (Homo sapiens (Human), UniProt P56373)
- Sequence (P56373 whole entry): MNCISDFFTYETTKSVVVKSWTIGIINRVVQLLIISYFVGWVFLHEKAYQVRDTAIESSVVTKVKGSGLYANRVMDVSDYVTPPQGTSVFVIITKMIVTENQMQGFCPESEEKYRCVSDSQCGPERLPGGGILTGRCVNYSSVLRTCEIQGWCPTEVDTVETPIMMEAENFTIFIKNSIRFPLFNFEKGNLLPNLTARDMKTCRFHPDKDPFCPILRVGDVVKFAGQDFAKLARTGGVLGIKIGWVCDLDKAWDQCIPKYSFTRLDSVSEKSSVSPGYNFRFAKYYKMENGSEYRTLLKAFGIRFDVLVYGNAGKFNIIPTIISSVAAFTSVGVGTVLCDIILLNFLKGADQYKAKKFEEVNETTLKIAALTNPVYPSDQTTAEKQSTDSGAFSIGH
- PROTOCOL NOTES: Evaluation of human P2X3 receptor inhibitory activity (Fluo-3 calcium fluorescence, FDSS 3000, ATP stimulation);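 also: stimulus was 50 nM ATP with fluorescence followed for 3 min, and the response per well was peak post-ATP fluorescence divided by the reading at measurement start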
- Type: cell-based
- EXPERIMENTAL PARAMETERS: C6BU-1 cells stably expressing human P2X3 receptor, Fluo-3 fluorescence, FDSS 3000
pIC50: −log10 of the molar value.

# COMPOUND, pIC50
measured = [
    ("COC(=O)[C@@H](C)Cn1c(=O)[nH]/c(=N\\c2ccc3oc(C)c(C)c3c2)n(Cc2ccc(Cl)cc2)c1=O", 8.05),
    ("CCC[C@@H](C)Oc1ccc(/N=c2\\[nH]c(=O)n(C[C@H](C)C(=O)O)c(=O)n2Cc2ccc(C)cc2)cc1", 6.76),
    ("Cc1cc(/N=c2\\[nH]c(=O)n(CC3CCN(CC(=O)O)CC3)c(=O)n2Cc2ccc(Cl)cc2)ccc1OC(C)C", 6.80),
    ("COC(=O)[C@@H](C)Cn1c(=O)[nH]/c(=N\\c2ccc(Cl)c(Cl)c2)n(Cc2ccc(C)cc2)c1=O", 7.62),
    ("COC(=O)CCn1c(=O)[nH]/c(=N\\C2CCC(C)CC2)n(Cc2ccc(C)cc2)c1=O (centres unmarked)", 6.39),
    ("C[C@@H](Cn1c(=O)[nH]/c(=N\\c2ccc(CC3CCCC3)cc2)n(Cc2ccc(Cl)cc2)c1=O)C(=O)O", 7.28),
    ("C[C@@H](Cn1c(=O)[nH]/c(=N\\c2ccc(Oc3ccccc3)cc2)n(Cc2ccc(Cl)cc2)c1=O)C(=O)O", 7.66),
    ("Cc1cc(/N=c2\\[nH]c(=O)n(CCC(=O)O)c(=O)n2Cc2ccc(Cl)cc2)ccc1OC(C)C", 7.28),
    ("CCN(c1ccc(/N=c2\\[nH]c(=O)n(C[C@H](C)C(=O)OC)c(=O)n2Cc2ccc(Cl)cc2)cc1)C(C)C", 6.13),
    ("CCn1c(C)nc2cc(/N=c3\\[nH]c(=O)n([C@@H](C)[C@@H](C)C(=O)O)c(=O)n3Cc3ccc(Cl)cc3)ccc21", 6.48),
    ("COC(=O)[C@@H](C)Cn1c(=O)[nH]/c(=N\\c2ccc(C3CCCCC3)cc2)n(Cc2ccc(C)cc2)c1=O", 7.15),
    ("O=C(O)c1cc(Oc2ccc(/N=c3\\[nH]c(=O)n(CCO)c(=O)n3Cc3ccc(Cl)cc3)cc2)ccn1", 8.22),
    ("CNC(=O)Cn1c(=O)[nH]/c(=N\\c2ccc(Oc3ccc(OC)nc3)cc2)n(Cc2ccc(Cl)cc2)c1=O", 8.15),
    ("CNC(=O)CCn1c(=O)[nH]/c(=N\\c2ccc3nc(C)sc3c2)n(Cc2ccc(C)cc2)c1=O", 8.10),
]

---

Measured IC50 accompanies every entry in the list below.
- TARGET OR SYSTEM: human P2X3 receptor (Homo sapiens (Human))
- PROTOCOL NOTES: Evaluation of human P2X3 receptor inhibitory activity (Fluo-3 calcium fluorescence, FDSS 3000, ATP stimulation)
- Type: cell-based
- EXPERIMENTAL PARAMETERS: C6BU-1 cells stably expressing human P2X3 receptor, Fluo-3 fluorescence, FDSS 3000
PROPERTY LABEL: IC50 (nM)

# COMPOUND STRUCTURE STRING, NUMERIC RESULT
rows = [
    ("CC(C)Oc1ccc(Nc2nc(=O)n(C(C)C)c(=O)n2Cc2ccc(F)cc2)cc1C#N", 910),
    ("COC(=O)[C@@H](C)Cn1c(=O)[nH]/c(=N\\c2cccc(SC)c2)n(Cc2ccc(C)cc2)c1=O", 71),
    ("CCC[C@H](C)Oc1ccc(/N=c2\\[nH]c(=O)n(C[C@H](C)C(=O)O)c(=O)n2Cc2ccc(C)cc2)cc1", 29),
    ("CCCOc1ccc(/N=c2\\[nH]c(=O)n(CC3(C(=O)OCC)CC3)c(=O)n2Cc2ccc(Cl)cc2)cc1", 14),
    ("Cc1nc2ccc(/N=c3\\[nH]c(=O)n(CC4(C)COC(C)(C)OC4)c(=O)n3Cc3ccc(Cl)cc3)cc2s1", 5),
    ("COC(=O)[C@@H](C)Cn1c(=O)[nH]/c(=N\\c2cccc(C3=CCCC3)c2)n(Cc2ccc(C)cc2)c1=O", 392),
    ("Cc1ccc(Cn2c(=O)n(C[C@H](C)C(=O)O)c(=O)[nH]/c2=N\\c2ccc(OC3CC3)c(Cl)c2)cc1", 35),
    ("CCOC(=O)CCn1c(=O)[nH]/c(=N\\c2ccc(OCC3CC3)cc2)n(Cc2ccc(Cl)cc2)c1=O", 10),
    ("CCc1oc2ccc(/N=c3\\[nH]c(=O)n(CC(C)(C)C(=O)O)c(=O)n3Cc3ccc(Cl)cc3)cc2c1C", 7),
    ("CCOc1ccc(/N=c2\\[nH]c(=O)n(C[C@H](O)CO)c(=O)n2Cc2ccc(Cl)cc2)cc1Cl", 8),
    ("Cc1ccc(Cn2c(=O)n(C[C@H](C)C(=O)O)c(=O)[nH]/c2=N\\c2ccc(Oc3ccn(C)c(=O)c3)cc2)cc1", 6),
    ("CCc1oc2ccc(/N=c3\\[nH]c(=O)n(CCO)c(=O)n3Cc3ccc(Cl)cc3)cc2c1C", 16),
    ("CCc1oc2ccc(/N=c3\\[nH]c(=O)n(CCCC(=O)O)c(=O)n3Cc3ccc(C)cc3)cc2c1C", 15),
    ("C/C=C\\c1ccc(Cn2c(=O)n(C[C@H](C)C(=O)O)c(=O)[nH]/c2=N\\c2ccc(OC(C)C)cc2)cc1", 551),
]
